Every entry's value here was drawn from patent US8816084B1.

PROTOCOL NOTES: pH Stability Test
Assay type: physicochemical
SETUP CONDITIONS: 100 mg solid dissolved in 10 ml deionized water, pH meter; hydrochloride
PROPERTY: pH

| COMPOUND | RECORDED NUMBER |
| --- | --- |
| CN(C(=O)/C=C/c1ccoc1)[C@@H]1CC[C@@]2(O)[C@H]3Cc4ccc(O)c5c4[C@@]2(CCN3CC2CC2)[C@H]1O5.Cl (relative stereo) [Comparative Example 1] | 4.4 |
| CN(C(=O)/C=C/c1ccoc1)[C@@H]1CC[C@@]2(O)[C@H]3Cc4ccc(O)c5c4[C@@]2(CCN3CC2CC2)[C@H]1O5.Cl (relative stereo) [Comparative Example 3] | 3.7 |
| CN(C(=O)/C=C/c1ccoc1)[C@@H]1CC[C@@]2(O)[C@H]3Cc4ccc(O)c5c4[C@@]2(CCN3CC2CC2)[C@H]1O5.Cl (relative stereo) [Example 2] | 3.6 |
| CN(C(=O)/C=C/c1ccoc1)[C@@H]1CC[C@@]2(O)[C@H]3Cc4ccc(O)c5c4[C@@]2(CCN3CC2CC2)[C@H]1O5.Cl (relative stereo) [Comparative Example 2] | 2.6 |
| CN(C(=O)/C=C/c1ccoc1)[C@@H]1CC[C@@]2(O)[C@H]3Cc4ccc(O)c5c4[C@@]2(CCN3CC2CC2)[C@H]1O5.Cl (relative stereo) [Example 1] | 3.5 |
| CN(C(=O)/C=C/c1ccoc1)[C@@H]1CC[C@@]2(O)[C@H]3Cc4ccc(O)c5c4[C@@]2(CCN3CC2CC2)[C@H]1O5.Cl (relative stereo) [Example 3] | 3.6 |
